Data origin: patent US20260125382A1

# key: entry, value: Enzyme degradation CDK9 (% remaining) @ 1 μM
- ASSAY_SYSTEM: CDK9 (Homo sapiens, UniProt P50750)
- Construct: endogenous in cells; host or cells: MDA-MB-231
- Sequence (P50750 whole entry): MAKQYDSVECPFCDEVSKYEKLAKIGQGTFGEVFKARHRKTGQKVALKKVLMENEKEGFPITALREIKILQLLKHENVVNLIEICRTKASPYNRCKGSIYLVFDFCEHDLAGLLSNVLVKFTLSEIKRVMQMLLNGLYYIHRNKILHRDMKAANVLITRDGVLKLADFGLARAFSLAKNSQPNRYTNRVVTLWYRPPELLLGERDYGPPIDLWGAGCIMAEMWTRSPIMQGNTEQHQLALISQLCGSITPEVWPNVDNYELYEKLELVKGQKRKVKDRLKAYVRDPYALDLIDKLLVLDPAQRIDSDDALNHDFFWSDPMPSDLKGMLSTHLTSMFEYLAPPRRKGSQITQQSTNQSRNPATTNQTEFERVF
- TEST_PROTOCOL: CDK protein degradation activity (Western blotting), CDK9
- Type: cell-based
- CONDITION_SET: MDA-MB-231 cells, 1 μM, 16 hours, Western blot

Please review the entries below; each comes with its answer.
>  <MOLECULE>
O=C1CC[C@H](N2C(=O)c3cc(F)c(N4CCN(C5CC6(CCN(c7ccc(Nc8ncnc9c8ncn9[C@H]8C[C@@H](NC(=O)Cc9ccccc9)C8)cc7)CC6)C5)CC4)cc3C2=O)C(=O)N1

>  <ASSAY_SYSTEM>
CDK9 (Homo sapiens, UniProt P50750)

>  <REPORTED_MEASUREMENT>
0%

$$$$
>  <MOLECULE>
O=C1CC[C@H](N2C(=O)c3ccc(N4CCN(CC=CCN5CCC6(CC5)CC(N5CCN(c7ccc(Nc8ncnc9c8ncn9C8CC(NC(=O)Cc9ccccc9)C8)cc7)CC5)C6)CC4)cc3C2=O)C(=O)N1 (stereo partly shown)

>  <ASSAY_SYSTEM>
CDK9 (Homo sapiens, UniProt P50750)

>  <REPORTED_MEASUREMENT>
20%

$$$$
>  <MOLECULE>
O=C1CC[C@H](N2C(=O)c3ccc(OCC(=O)N4CCC(CN5CCN(c6ccc(Nc7ncnc8c7ncn8C7CC(NC(=O)Cc8ccccc8)C7)cc6)CC5)CC4)cc3C2=O)C(=O)N1 (stereo partly shown)

>  <ASSAY_SYSTEM>
CDK9 (Homo sapiens, UniProt P50750)

>  <REPORTED_MEASUREMENT>
30%

$$$$

O=C1CC[C@H](N2C(=O)c3cccc(NCC(=O)N4CCN(CCCN5CCN(c6ccc(Nc7ncnc8c7ncn8[C@H]7C[C@@H](NC(=O)Cc8ccccc8)C7)cc6)CC5)CC4)c3C2=O)C(=O)N1 yielded Enzyme degradation CDK9 (% remaining) @ 1 μM of 0%

O=C1CC[C@H](N2C(=O)c3ccc(N4CC(C(=O)N5CCN(C6CCN(c7ccc(Nc8ncnc9c8ncn9C8CC(NC(=O)Cc9ccccc9)C8)cc7)CC6)CC5)C4)cc3C2=O)C(=O)N1 (stereo partly shown) yielded Enzyme degradation CDK9 (% remaining) @ 1 μM of 10%

Cc1cccc(C(=O)NC2CC(n3cnc4c(Nc5ccc(N6CCN(CC7CCN(C(=O)COc8ccc([C@@H]9CCC(=O)NC9=O)cc8)CC7)CC6)cc5)ncnc43)C2)n1 (stereo partly shown) yielded Enzyme degradation CDK9 (% remaining) @ 1 μM of 0/0/0%

###

- ASSAY_SYSTEM: CDK9 (Homo sapiens, UniProt P50750)
- Construct: endogenous in cells; host or cells: MDA-MB-231
- TEST_PROTOCOL: CDK protein degradation activity (Western blotting), CDK9
- Format: cell-based
- CONDITION_SET: MDA-MB-231 cells, 10 μM, 16 hours, Western blot
QUANTITY: Enzyme degradation CDK9 (% remaining) @ 10 μM (%)
Write the answer as a number in %, unit excluded.

>  <COMPOUND>
O=C1CC[C@H](N2C(=O)c3ccc(NCC(=O)N4CC(N5CCC6(CC5)CC(N5CCN(c7ccc(Nc8ncnc9c8ncn9C8CC(NC(=O)Cc9ccccc9)C8)cc7)CC5)C6)C4)cc3C2=O)C(=O)N1 (stereo partly shown)

>  <ASSAY_SYSTEM>
CDK9 (Homo sapiens, UniProt P50750)

>  <REPORTED_MEASUREMENT>
0

$$$$
>  <COMPOUND>
O=C1CC[C@H](N2C(=O)c3ccc(N4CCC(CCCN5CCN(c6ccc(Nc7ncnc8c7ncn8C7CC(NC(=O)Cc8ccccc8)C7)cc6)CC5)CC4)cc3C2=O)C(=O)N1 (stereo partly shown)

>  <ASSAY_SYSTEM>
CDK9 (Homo sapiens, UniProt P50750)

>  <REPORTED_MEASUREMENT>
10

$$$$
>  <COMPOUND>
O=C1CC[C@@H](c2cccc(OCC(=O)N3CCC(CC(=O)N4CCN(c5ccc(Nc6ncnc7c6ncn7[C@H]6C[C@@H](NC(=O)Cc7ccccc7)C6)cc5)CC4)CC3)c2)C(=O)N1

>  <ASSAY_SYSTEM>
CDK9 (Homo sapiens, UniProt P50750)

>  <REPORTED_MEASUREMENT>
10

$$$$
>  <COMPOUND>
Cc1cccc(C(=O)N[C@H]2C[C@H](n3cnc4c(NCC5CCN(C(=O)CCCCCNc6ccc7c(c6)C(=O)N([C@@H]6CCC(=O)NC6=O)C7=O)CC5)ncnc43)C2)n1

>  <ASSAY_SYSTEM>
CDK9 (Homo sapiens, UniProt P50750)

>  <REPORTED_MEASUREMENT>
0

$$$$
>  <COMPOUND>
O=C1CC[C@H](N2C(=O)c3ccc(N4CCC(C(=O)N5CCN(CCCC6CCN(c7ccc(Nc8ncnc9c8ncn9[C@H]8C[C@@H](NC(=O)Cc9ccccc9)C8)cc7)CC6)CC5)CC4)cc3C2=O)C(=O)N1

>  <ASSAY_SYSTEM>
CDK9 (Homo sapiens, UniProt P50750)

>  <REPORTED_MEASUREMENT>
0

$$$$

Now look at this one.
Cc1cccc(C(=O)NC2CC(n3cnc4c(NCc5cccc(N6CCN(c7cccc8c7C(=O)N([C@H]7CCC(=O)NC7=O)C8=O)CC6)c5)ncnc43)C2)n1 (stereo partly shown) yielded Enzyme degradation CDK9 (% remaining) @ 10 μM of 70
